System: Escherichia coli
Condition details: Concentration 20 uM; ASSAY_TEST Inhibition of Bacterial Growth; detection method Absorption (OD600); MEDIA CAMHB; plate type 384well; NBS; CORNING #3640; time 18 hr
Description: Antibacterial activity against Escherichia coli ATCC 25922 (CO-ADD:GN_001); MIC in CAMBH media using NBS plates, by OD(600)
Entries with a potency or affinity are not part of this list.
Measured attribute: Inhibition (%)
Answers are plain numbers, in %.

Use the examples below as a reference point.
Molecule	Result value
CCCC1O[C@@H]2C[C@H]3[C@@H]4CCC5=CC(=O)C=C[C@]5(C)[C@H]4[C@@H](O)C[C@]3(C)[C@]2(C(=O)CO)O1 (stereo partly specified) [BUDESONIDE]	-1.42
Nc1nnc(-c2cccc(Cl)c2Cl)c(N)n1	4.49
Cc1ncc([N+](=O)[O-])n1CC(O)CCl (stereo unspecified)	5.05
CCOC(=O)OC(C)OC1=C(C(=O)Nc2ccccn2)N(C)S(=O)(=O)c2ccccc21 (stereo unspecified)	-0.97

Each molecule below has a reported value. Please supply its Inhibition.
1. COc1cc(C)c(/C=C/C(C)=C/C=C/C(C)=C/C(=O)O)c(C)c1C
2. CC(=O)OCC(=O)[C@@]1(O)CC[C@H]2[C@@H]3CCC4=CC(=O)C=C[C@]4(C)[C@H]3[C@@H](O)C[C@@]21C [PREDNISOLONE ACETATE]

Return:
1. 4.27
2. 1.81
